Reference source for all entries: the supplement of paper PMC10065799

measured on: FGFR1 (UniProt P11362)
Sequence (P11362 whole entry, looked up): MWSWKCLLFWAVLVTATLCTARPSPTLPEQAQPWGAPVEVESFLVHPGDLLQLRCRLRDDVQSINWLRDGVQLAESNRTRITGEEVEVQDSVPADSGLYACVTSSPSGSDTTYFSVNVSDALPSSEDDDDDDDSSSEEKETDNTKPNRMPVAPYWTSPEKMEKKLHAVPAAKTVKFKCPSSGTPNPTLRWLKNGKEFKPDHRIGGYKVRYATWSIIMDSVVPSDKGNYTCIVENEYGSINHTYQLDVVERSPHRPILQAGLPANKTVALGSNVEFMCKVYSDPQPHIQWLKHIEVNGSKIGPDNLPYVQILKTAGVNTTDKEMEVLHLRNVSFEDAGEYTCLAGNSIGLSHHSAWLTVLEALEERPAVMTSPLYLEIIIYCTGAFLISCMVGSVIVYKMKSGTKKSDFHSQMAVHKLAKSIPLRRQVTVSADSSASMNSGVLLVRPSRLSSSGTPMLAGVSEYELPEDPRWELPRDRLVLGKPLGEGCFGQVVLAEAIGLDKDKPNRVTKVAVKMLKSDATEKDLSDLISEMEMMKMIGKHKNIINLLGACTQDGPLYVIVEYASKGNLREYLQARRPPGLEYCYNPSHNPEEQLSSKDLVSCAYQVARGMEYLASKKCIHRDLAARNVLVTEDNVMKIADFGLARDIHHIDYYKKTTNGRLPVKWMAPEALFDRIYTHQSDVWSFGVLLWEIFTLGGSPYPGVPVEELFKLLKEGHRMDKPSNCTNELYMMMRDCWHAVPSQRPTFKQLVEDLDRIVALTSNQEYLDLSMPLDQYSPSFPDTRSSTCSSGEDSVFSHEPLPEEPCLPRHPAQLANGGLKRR
experimental protocol: phosphorylation enrichment, bacterial display (enrichment ratio); higher = better substrate or ligand; peptides without Tyr show the background;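 also: 11-residue human phosphosite peptides and single-mutation variants displayed on the E. coli surface, counted by deep sequencing, each peptide's frequency after selection divided by its frequency in the unselected input library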;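 also: frequency after pTyr selection over input frequency; kinase dosed for 20-30% of maximal phosphorylation in three min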
reported property: phosphorylation enrichment
Numbers only.

- macromolecule sequence: "PEVRRYVLPLN [RPE65_Y368]"
  numeric value: 0.606
- macromolecule sequence: "SVVVPYEPPGV [TP53_Y220_E224G]"
  numeric value: 0.469
- macromolecule sequence: "LGQRIYQFIRS [DYRK1B_Y271_Q275R_YF]"
  numeric value: 1.39
- macromolecule sequence: "TVFENYVADIE [RHOA_Y42]"
  numeric value: 0.642
- macromolecule sequence: "DVVKDCAFVHM [RBM14_Y114_Y114C]"
  numeric value: 0.573
- macromolecule sequence: "KILTHYKRPHT [KMT2D_Y5349]"
  numeric value: 0.456
- macromolecule sequence: "TEYSQYMRRKN [MAX_Y73_I71S]"
  numeric value: 0.548
- macromolecule sequence: "HSGIFYKPESL [L2HGDH_Y103_YF]"
  numeric value: 1.11

# map each sequence to its phosphorylation enrichment
1. SVVVPYGPPEV [TP53_Y220_E221G]
2. NKVQFYIPDMN [NCR1_Y84_K82Q]

1. 0.57
2. 0.579

# map each sequence to its phosphorylation enrichment
1. AQVDTYCRHNY [HLA-DRB1_Y107_A103Q]
2. REEIKYMLWLS [OTC_Y55_G50R]
3. NLDRFYQQVTK [SEC16A_Y1041]

[0.512, 0.961, 0.45]

# map each sequence to its phosphorylation enrichment
1. TEAGDYKLCFD [TMED1_Y103]
2. SHSMRYFSTAV [HLA-C_Y31_D33S]
3. NRLTDYYEPLL [BBS10_Y536]
4. LLRLAYLADIF [ZBED5_Y476]
5. LKLIQYHLIQQ [AKAP4_Y554_T557I]
6. SVVVPYETPEV [TP53_Y220_P222T]
7. GRVLGYGTFGK [FLT4_Y853_A855T]
8. TIMTNYNPNYC [ALK_Y1092_D1091N]

[0.653, 0.657, 11, 0.64, 0.687, 0.569, 0.338, 0.545]

# map each sequence to its phosphorylation enrichment
1. EDGCIYPGTIA [SMN1_Y109_A111G]
2. HRGSLYLAIEF [TEK_Y899_Y897S_YF]

1: 0.553; 2: 0.589

# map each sequence to its phosphorylation enrichment
1. MEIHAYLKLLE [LMNA_Y376_R377L]
2. KTTGGYAGGLS [KRT8_Y419_S417G]
3. IVAEYYDNLPH [DEGS1_Y284_A280V]
4. YRTGHYLCNAC [GATA1_Y223_D218Y]

1. 0.517
2. 0.454
3. 9.37
4. 0.412

# map each sequence to its phosphorylation enrichment
1. YQSKHYACIRQ [TIMP3_Y182]
2. QKKEEYKMALY [F8_Y1990_R1985Q]
3. DHAGMYGLGDR [MAPT_Y18_T17M]
4. ILGTYYETGSI [PAX2_Y73_R71T]
5. PRRRFYVVACD [RNASE3_Y134_G130R]

[0.52, 0.527, 0.391, 9.71, 0.614]

# map each sequence to its phosphorylation enrichment
1. RDSQIYAVDFE [MRPS34_Y34_L33I_YF]
2. FDDDDYDTDFV [BLM_Y296]
3. RETLTYAQAQR [BRD1_Y33]
4. KDHPDYKFQPR [SOX10_Y171_YF]
5. FPRAWYRRSIA [KIAA1109_Y4272]
6. PSELYYSKIGP [SMG1_Y2254]
7. PLGKDYRKAEG [MAP1A_Y1909]

1: 0.664; 2: 0.586; 3: 0.541; 4: 0.519; 5: 0.394; 6: 12.9; 7: 0.691

# map each sequence to its phosphorylation enrichment
1. MGSFNYLGFPR [SPTLC2_Y178_A182P_YF]
2. RESSGYLRLAF [MEP1A_Y481]
3. CTTIHYHFMCN [TP53_Y234_N235H_YF]

1. 0.566
2. 0.593
3. 0.599
